Each recorded value in this set is attributed to ChEMBL document CHEMBL6092167.

- Test system: Acinetobacter baumannii
- EXPERIMENTAL_DETAILS: Antibacterial activity against Acinetobacter baumannii ATCC 19606 incubated for 18 to 24 hrs by broth microdilution method
- Type: functional
- CONDITION: time 18-24 hrs
Non-standard residues stand in square brackets, D forms with d. Residues, ends and D or L forms follow the SMILES beside them. Bip = N[C@@H](Cc1ccc(-c2ccccc2)cc1)C(=O)O; pY = N[C@@H](Cc1ccc(OP(=O)(O)O)cc1)C(=O)O
Measured MIC values are reported for all entries that follow.
Answer by giving the amount and then stating its unit.

Here's what some known entries look like.
COMPOUND: CO[C@H]1/C=C/O[C@@]2(C)Oc3c(C)c(O)c4c(O)c(c(/C=N/N5CCN(C)CC5)c(O)c4c3C2=O)NC(=O)/C(C)=C\C=C\[C@H](C)[C@H](O)[C@@H](C)[C@@H](O)[C@@H](C)[C@H](OC(C)=O)[C@@H]1C
MIC: 1 µM
--
COMPOUND: CN[C@H](CC(C)C)C(=O)N[C@H]1C(=O)N[C@@H](CC(N)=O)C(=O)N[C@H]2C(=O)N[C@H]3C(=O)N[C@H](C(=O)N[C@H](C(=O)O)c4cc(O)cc(O)c4-c4cc3ccc4O)[C@H](O)c3ccc(c(Cl)c3)Oc3cc2cc(c3O[C@@H]2O[C@H](CO)[C@@H](O)[C@H](O)[C@H]2O[C@H]2C[C@](C)(N)[C@H](O)[C@H](C)O2)Oc2ccc(cc2Cl)[C@H]1O
MIC: 64 µM
--
COMPOUND: CC(C)C[C@H](NC(=O)[C@H](CC(C)C)NC(=O)[C@H](Cc1ccc(OP(=O)(O)O)cc1)NC(=O)[C@H](CCCCN)NC(=O)[C@H](Cc1c[nH]c2ccccc12)NC(=O)[C@H](CCCNC(=N)N)NC(=O)[C@H](CCCCN)NC(=O)[C@H](CC(C)C)NC(=O)[C@H](CC(C)C)NC(=O)CN)C(N)=O (H-GLLKRWK[pY]LL-NH2)
MIC: 64 µM

Query compound follows.
Query block: Answer with the recorded MIC for the compound listed here: CC(C)C[C@H](NC(=O)[C@H](CC(C)C)NC(=O)[C@@H](NC(=O)[C@H](CCCCN)NC(=O)[C@H](Cc1ccc(-c2ccccc2)cc1)NC(=O)[C@H](CCCNC(=N)N)NC(=O)[C@H](CCCCN)NC(=O)[C@H](CC(C)C)NC(=O)[C@H](CC(C)C)NC(=O)CN)[C@@H](C)O)C(N)=O (H-GLLKR[Bip]KTLL-NH2)
Result block: 16 µM
